Exercise: state measured MIC Escherichia coli (ATCC 25922) for each of the molecules provided.
tested on: Escherichia coli; experiment: In vitro antibacterial evaluation: minimum inhibitory concentration (MIC), broth dilution method; type: cell-based; details: 5×10^5 CFU/mL, 18 hours at 35° C.

Quick one: MIC Escherichia coli (ATCC 25922) for CC(c1ccccc1)C1NC(=O)CNC(=O)C(CO)NC(=O)C(C(O)C2CNC(=N)N2C2OC(CO)C(O)C(O)C2O)NC(=O)C(C(O)C2CNC(=N)N2)NC(=O)C(Cc2ccc(OC3OC(CO)C(OC4OC5COC6(OC5C(O)C4O)C4CC5CC(C4)CC6C5)C(O)C3O)cc2)NC1=O (stereo not drawn) ?
16 to 32 µg/mL

Quick one: MIC Escherichia coli (ATCC 25922) for CC(c1ccccc1)C1NC(=O)CNC(=O)C(CO)NC(=O)C(C(O)C2CNC(=N)N2C2OC(CO)C(O)C(O)C2O)NC(=O)C(C(O)C2CNC(=N)N2)NC(=O)C(Cc2ccc(OC3OC(CO)C(OC4OC5COC(c6cccc(O)c6)OC5C(O)C4O)C(O)C3O)cc2)NC1=O (stereo not drawn) ?
>64 µg/mL

Quick one: MIC Escherichia coli (ATCC 25922) for CC(C)=CCCC(C)C1OCC2OC(OC3C(CO)OC(Oc4ccc(CC5NC(=O)C(C(C)c6ccccc6)NC(=O)CNC(=O)C(CO)NC(=O)C(C(O)C6CNC(=N)N6C6OC(CO)C(O)C(O)C6O)NC(=O)C(C(O)C6CNC(=N)N6)NC5=O)cc4)C(O)C3O)C(O)C(O)C2O1 (stereo not drawn) ?
>64 µg/mL

----------
Exercise: state measured MIC Staphylococcus aureus (GC 3053) for each of the molecules provided.
test system: Staphylococcus sp.; test: In vitro antibacterial evaluation: minimum inhibitory concentration (MIC), broth dilution method; type: cell-based; conditions: strain GC 3053; broth dilution, 18 hours at 35° C.
A number alone suffices; assume µg/mL.

Quick one: MIC Staphylococcus aureus (GC 3053) for CC(c1ccccc1)C1NC(=O)CNC(=O)C(CO)NC(=O)C(C(O)C2CNC(=N)N2C2OC(CO)C(O)C(O)C2O)NC(=O)C(C(O)C2CNC(=N)N2)NC(=O)C(Cc2ccc(OC3OC(CO)C(OC4OC5COC(c6cc7c(cc6Cl)OCO7)OC5C(O)C4O)C(O)C3O)cc2)NC1=O (centres unmarked) [Example 158] ?
2

Quick one: MIC Staphylococcus aureus (GC 3053) for Cc1ccc(Oc2ccc(C3OCC4OC(OC5C(CO)OC(Oc6ccc(CC7NC(=O)C(C(C)c8ccccc8)NC(=O)CNC(=O)C(CO)NC(=O)C(C(O)C8CNC(=N)N8C8OC(CO)C(O)C(O)C8O)NC(=O)C(C(O)C8CNC(=N)N8)NC7=O)cc6)C(O)C5O)C(O)C(O)C4O3)cc2)cc1 (centres unmarked) [Example 174] ?
2

Quick one: MIC Staphylococcus aureus (GC 3053) for CC(c1ccccc1)C1NC(=O)CNC(=O)C(CO)NC(=O)C(C(O)C2CNC(=N)N2C2OC(CO)C(O)C(O)C2O)NC(=O)C(C(O)C2CNC(=N)N2)NC(=O)C(Cc2ccc(OC3OC(CO)C(OC4OC5COC(c6ccc(Oc7ccc(C(C)(C)C)cc7)cc6)OC5C(O)C4O)C(O)C3O)cc2)NC1=O (centres unmarked) [Example 181] ?
4

Quick one: MIC Staphylococcus aureus (GC 3053) for CC(c1ccccc1)C1NC(=O)CNC(=O)C(CO)NC(=O)C(C(O)C2CNC(=N)N2C2OC(CO)C(O)C(O)C2O)NC(=O)C(C(O)C2CNC(=N)N2)NC(=O)C(Cc2ccc(OC3OC(CO)C(OC4OC5COC(c6ccc(C(C)(C)C)cc6)OC5C(O)C4O)C(O)C3O)cc2)NC1=O (centres unmarked) [Example 147] ?
0.5

Quick one: MIC Staphylococcus aureus (GC 3053) for CCC(CC)C1OCC2OC(OC3C(CO)OC(Oc4ccc(CC5NC(=O)C(C(C)c6ccccc6)NC(=O)CNC(=O)C(CO)NC(=O)C(C(O)C6CNC(=N)N6C6OC(CO)C(O)C(O)C6O)NC(=O)C(C(O)C6CNC(=N)N6)NC5=O)cc4)C(O)C3O)C(O)C(O)C2O1 (centres unmarked) [Example 116] ?
1

Quick one: MIC Staphylococcus aureus (GC 3053) for COc1cccc(C2OC3C(OC4C(CO)OC(Oc5ccc(CC6NC(=O)C(C(C)c7ccccc7)NC(=O)CNC(=O)C(CO)NC(=O)C(C(O)C7CNC(=N)N7C7OC(CO)C(O)C(O)C7O)NC(=O)C(C(O)C7CNC(=N)N7)NC6=O)cc5)C(O)C4O)OC(CO)C(O)C3O2)c1 (single isomer, unassigned) [Example 137a] ?
32

Source of measurements: patent US8247211B2
